Numbers sourced from patent US6288091A.

target: HSV-1 helicase-primase (Human herpesvirus 1, UniProt P10189+P10236); construct: made in house; host or cells: Sf21 insect cells triply infected with recombinant baculoviruses (UL5, UL8, UL52); assay: HSV-1 DNA-dependent ATPase assay (inhibition of HSV-1 helicase-primase); type: biochemical; conditions: Group 2 Table 2 entries (A = C(O))
Sequence (P10192 whole entry): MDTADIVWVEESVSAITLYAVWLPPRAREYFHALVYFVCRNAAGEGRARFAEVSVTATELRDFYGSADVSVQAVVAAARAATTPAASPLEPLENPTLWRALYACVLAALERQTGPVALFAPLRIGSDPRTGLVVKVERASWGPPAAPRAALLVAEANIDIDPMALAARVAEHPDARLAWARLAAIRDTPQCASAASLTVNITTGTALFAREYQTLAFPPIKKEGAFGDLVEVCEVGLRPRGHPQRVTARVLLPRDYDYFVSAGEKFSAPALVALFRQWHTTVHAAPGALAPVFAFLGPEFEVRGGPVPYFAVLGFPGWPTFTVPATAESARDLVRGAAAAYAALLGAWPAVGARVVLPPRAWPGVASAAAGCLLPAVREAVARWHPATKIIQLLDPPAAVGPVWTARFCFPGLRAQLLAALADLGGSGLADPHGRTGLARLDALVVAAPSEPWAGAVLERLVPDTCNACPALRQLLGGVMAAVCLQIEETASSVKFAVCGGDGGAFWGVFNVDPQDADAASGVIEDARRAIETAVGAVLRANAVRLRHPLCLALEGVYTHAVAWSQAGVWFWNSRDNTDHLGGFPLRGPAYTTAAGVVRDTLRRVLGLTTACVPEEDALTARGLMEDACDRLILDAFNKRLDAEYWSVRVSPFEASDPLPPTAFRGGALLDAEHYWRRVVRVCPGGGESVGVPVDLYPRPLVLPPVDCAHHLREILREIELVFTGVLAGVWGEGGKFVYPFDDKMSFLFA
Sequence (P10236 whole entry): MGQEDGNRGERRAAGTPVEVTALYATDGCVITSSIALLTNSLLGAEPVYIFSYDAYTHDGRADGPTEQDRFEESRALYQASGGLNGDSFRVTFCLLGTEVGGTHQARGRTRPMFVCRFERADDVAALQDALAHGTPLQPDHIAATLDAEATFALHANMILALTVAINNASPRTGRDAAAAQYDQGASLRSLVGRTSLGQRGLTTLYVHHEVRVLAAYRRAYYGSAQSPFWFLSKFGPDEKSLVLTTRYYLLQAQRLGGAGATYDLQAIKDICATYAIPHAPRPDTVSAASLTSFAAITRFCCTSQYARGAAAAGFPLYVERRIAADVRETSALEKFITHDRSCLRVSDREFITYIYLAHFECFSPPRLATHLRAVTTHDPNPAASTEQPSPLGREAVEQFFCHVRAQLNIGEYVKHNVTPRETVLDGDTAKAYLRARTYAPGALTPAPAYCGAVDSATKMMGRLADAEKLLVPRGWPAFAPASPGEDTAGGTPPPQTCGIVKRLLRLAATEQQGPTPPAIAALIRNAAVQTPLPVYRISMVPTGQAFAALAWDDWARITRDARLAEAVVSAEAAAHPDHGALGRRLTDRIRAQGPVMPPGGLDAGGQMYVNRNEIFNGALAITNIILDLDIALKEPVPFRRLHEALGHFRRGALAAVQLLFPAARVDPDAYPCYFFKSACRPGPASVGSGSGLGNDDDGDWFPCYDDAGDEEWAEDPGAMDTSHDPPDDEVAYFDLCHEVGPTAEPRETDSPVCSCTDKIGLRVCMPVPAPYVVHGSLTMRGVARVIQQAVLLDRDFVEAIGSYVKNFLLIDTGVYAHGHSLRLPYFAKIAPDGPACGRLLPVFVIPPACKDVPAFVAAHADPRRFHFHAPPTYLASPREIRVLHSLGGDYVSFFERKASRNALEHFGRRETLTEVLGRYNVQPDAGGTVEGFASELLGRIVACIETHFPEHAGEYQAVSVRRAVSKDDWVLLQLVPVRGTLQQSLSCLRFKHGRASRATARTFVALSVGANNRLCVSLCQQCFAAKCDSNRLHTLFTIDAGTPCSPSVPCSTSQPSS
Sequence (P10189 whole entry): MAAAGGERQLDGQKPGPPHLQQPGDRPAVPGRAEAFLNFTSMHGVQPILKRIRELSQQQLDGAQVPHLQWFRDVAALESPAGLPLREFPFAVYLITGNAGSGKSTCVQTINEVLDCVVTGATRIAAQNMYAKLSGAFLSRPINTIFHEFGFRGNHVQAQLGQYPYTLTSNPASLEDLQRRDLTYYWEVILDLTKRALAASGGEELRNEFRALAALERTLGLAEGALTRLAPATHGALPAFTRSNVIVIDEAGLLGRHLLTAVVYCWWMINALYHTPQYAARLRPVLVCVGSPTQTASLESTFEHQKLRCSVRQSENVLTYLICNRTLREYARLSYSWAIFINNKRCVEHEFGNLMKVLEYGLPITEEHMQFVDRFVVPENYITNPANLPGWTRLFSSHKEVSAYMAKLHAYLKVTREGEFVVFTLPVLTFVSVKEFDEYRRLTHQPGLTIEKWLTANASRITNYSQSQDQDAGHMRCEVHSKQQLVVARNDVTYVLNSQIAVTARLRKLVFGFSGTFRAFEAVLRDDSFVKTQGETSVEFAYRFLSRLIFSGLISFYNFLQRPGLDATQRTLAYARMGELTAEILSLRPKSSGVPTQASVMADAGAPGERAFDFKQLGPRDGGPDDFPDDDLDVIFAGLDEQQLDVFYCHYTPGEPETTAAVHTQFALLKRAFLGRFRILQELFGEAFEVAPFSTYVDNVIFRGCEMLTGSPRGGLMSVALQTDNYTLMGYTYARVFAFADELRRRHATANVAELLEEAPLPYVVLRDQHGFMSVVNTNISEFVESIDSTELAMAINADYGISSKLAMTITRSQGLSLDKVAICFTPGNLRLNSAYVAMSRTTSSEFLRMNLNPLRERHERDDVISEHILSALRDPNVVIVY
Reported Metric: pIC50
Answers are plain numbers, as −log10 of the molar value.

Entry "CCCCN(CCCC)C(=O)C(=O)Nc1ccc(-c2csc(N)n2)cc1" , pIC50 reported as 5.15

---

system: HCMV (strain AD169); assay: Inhibition of HCMV replication, plaque reduction assay (PRA, Hs-68 cells); format: cell-based, Human Cytomegalovirus (HCMV); conditions: Human betaherpesvirus 5, AD169, Hs68, Group 1 Table 1 entries, read-out: PRA CMV EC50
Reported Metric: pEC50
Answers are plain numbers, as −log10 of the molar value.

Please review the following examples before continuing.
• C[C@H](c1ccccc1)N(CC(=O)Nc1ccc(-c2csc(N)n2)cc1)C(=O)c1ccncc1 = 4.31
• CC(C)(C)OC(=O)N(CC(=O)Nc1ccc(-c2csc(N)n2)cc1)Cc1ccccc1 = 4.92
• Cc1cc(C)nc(SCC(=O)N(CC(=O)Nc2ccc(-c3csc(N)n3)cc2)Cc2ccccc2C)n1 = 5.06

// switching to the query compound
Log: HCMV (strain AD169), compound "Cc1ccccc1CN(CC(=O)Nc1ccc(-c2csc(N)n2)cc1)C(=O)c1ccsc1" , pEC50 = 4.77

---

target: HSV-1 helicase-primase (Human herpesvirus 1, UniProt P10189+P10236); construct: made in house; host or cells: Sf21 insect cells triply infected with recombinant baculoviruses (UL5, UL8, UL52); test: HSV-1 DNA-dependent ATPase assay (inhibition of HSV-1 helicase-primase); format: biochemical; settings: Group 1 Table 1 entries
Reported Metric: pIC50
Answers are plain numbers, as −log10 of the molar value.

For each of the compounds below, state pIC50.
1. Nc1nc(-c2ccc(NC(=O)CN(Cc3c(F)cccc3F)C(=O)c3ccncc3)cc2)cs1
2. CN(C)S(=O)(=O)N(CC(=O)Nc1ccc(-c2csc(N)n2)cc1)Cc1ccccc1
3. CC(C)(C)CN(CC(=O)Nc1ccc(-c2csc(N)n2)cc1)C(=O)OC(C)(C)C
4. Nc1nc(-c2ccc(NC(=O)CN(Cc3ccccc3)C(=O)c3cccs3)cc2)cs1

*A*
1. 5.72
2. 6.00
3. 5.20
4. 6.38

---

Test system: HSV-1 strain F or KOS
Experiment: Inhibition of herpes simplex virus (HSV-1) replication in cell culture (BHK-21 cells, glycoprotein C ELISA)
Assay type: cell-based
Conditions: Human alphaherpesvirus 1, BHK-21, Group 1 Table 1 entries
Experimental: B) Inhibition of Herpes Simplex Virus (HSV-1) Replication in Cell Culture […] Thereafter, the cells were infected with HSV-1 strain F or KOS (multiplicity of infection =0.05 PFU/cell) in 50 μL of α-MEM supplemented with 2% heat inactivated FBS. […] After 24 hours of incubation at 37°, the extent of viral replication was determined by an ELISA assay; for instance, the following assay that detects the late glycoprotein C of HSV-1. […]
pEC50: −log10 of the molar value.
Kindly return 1 if reported pEC50 is no lower than 6; return -1 if it is lower.

- C[C@@H](c1ccccc1)N(CC(=O)Nc1ccc(-c2csc(N)n2)cc1)C(=O)OC(C)(C)C [Example 89]: 1
- Nc1nc(-c2ccc(NC(=O)CN(CCc3cccs3)C(=O)c3ccncc3)cc2)cs1 [Example 160]: 1
- Nc1nc(-c2ccc(NC(=O)CN(Cc3ccccc3)C(=O)CC3CCCCC3)cc2)cs1 [Example 38]: 1
- CC(C)CN(CC(=O)Nc1ccc(-c2csc(N)n2)cc1)C(=O)OCc1ccccc1 [Example 110]: -1
- Nc1nc(-c2ccc(NC(=O)CNCCc3ccccc3)cc2)cs1 [Example 2]: -1
- Nc1nc(-c2ccc(NC(=O)CNC(=O)c3ccccn3)cc2)cs1 [Example 19]: -1

# evaluate next
*Q* Check the entry Nc1nc(-c2ccc(NC(=O)CN(CCc3ccccc3)C(=O)C3CCCC3)cc2)cs1 [Example 66] : does pEC50 equal or exceed 6?
*A* 1
